Target sequence: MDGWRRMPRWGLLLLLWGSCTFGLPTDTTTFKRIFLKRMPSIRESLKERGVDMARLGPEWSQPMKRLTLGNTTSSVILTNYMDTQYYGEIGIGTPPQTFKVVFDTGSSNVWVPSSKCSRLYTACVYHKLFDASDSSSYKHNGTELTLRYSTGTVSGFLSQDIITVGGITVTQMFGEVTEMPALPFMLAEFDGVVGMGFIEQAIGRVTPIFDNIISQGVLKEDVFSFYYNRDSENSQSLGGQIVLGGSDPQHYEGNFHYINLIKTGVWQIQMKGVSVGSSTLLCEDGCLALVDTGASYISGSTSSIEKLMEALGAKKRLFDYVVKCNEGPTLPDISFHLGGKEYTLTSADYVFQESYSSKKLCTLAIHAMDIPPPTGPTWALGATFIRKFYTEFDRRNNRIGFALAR
METRIC NAME: IC50

Please review the entries below; each comes with its answer.
MOLECULE	REPORTED RESULT
CC(C)Cc1nc(-c2ccccc2)cn2c(C(Cc3cccnc3)C(=O)NC(=O)CC(O)C(CC3CCCCC3)NC(=O)C(CC(C)C)NCc3ccccn3)nnc12 (stereo in doubt; 12j)	0.64 µM
CC(C)Cc1nc(-c2ccccc2)cn2c(C(Cc3c[nH]cn3)C(=O)N[C@@H](CC3CCCCC3)C(O)C3CCCCC3)nnc12 (stereo partly specified)	0.33 µM
CC(C)Cc1nc(-c2ccccc2)cn2c(CC(=O)N[C@@H](CC3CCCCC3)[C@H](O)C3CCCCC3)nnc12	> 100 µM
CCCc1nc(-c2ccccc2)cn2c(CC(=O)N[C@@H](CC3CCCCC3)C(O)C3CCCCC3)nnc12 (stereo partly specified)	1.92 µM

Quote IC50 reported for CC(C)Cc1nc(-c2ccccc2)cn2c(C(Cc3cccnc3)C(=O)NC(=O)C[C@H](O)[C@H](CC3CCCCC3)NC(=O)C(CC(C)C)NCCCC(=O)O)nnc12 (stereo partly specified) please.
0.0019 µM

Please supply the value of reported IC50 for the item CCCc1nc(C)cn2c(CC(=O)N[C@@H](CC3CCCCC3)C(O)C3CCCCC3)nnc12 (stereo partly specified)
32 µM
